Tested on: SB.mhdgc-1
protocol.text: area under the dose-response curve of % viability (trapezoidal, 11 doses) (% viability x log10 concentration); higher = less cytotoxic
condition.context: SB.mhdgc-1 (hereditary c.1380delA CDH1 gastric cancer)
Use 1 when the recorded area under the dose-response curve is no lower than 500; use -1 when it is lower.

| molecule | class.assignment |
| --- | --- |
| CCc1nc(N)nc(N)c1-c1ccc(Cl)cc1 [Pyrimethamine] (top concentration 46.0829 µM) | -1 |
| Cc1cc2c(C(C)C)c(O)c(O)c(C=O)c2c(O)c1-c1c(C)cc2c(C(C)C)c(O)c(O)c(C=O)c2c1O [(-)-Gossypol] (top concentration 46.0829 µM) | 1 |
| O=C(Nc1ncc(-c2cc(C(F)F)nn2-c2c(Cl)cccc2Cl)s1)C1CC1 [BMS-3] (top concentration 46.0829 µM) | -1 |
| COc1c(C)cnc(Cn2cnc3c(Cl)nc(N)nc32)c1C [CNF-2024] (top concentration 46.0829 µM) | -1 |
| COc1cc[nH]c2ncc(C(=O)C(=O)N3CCN(C(=O)c4ccccc4)C[C@H]3C)c1-2 (top concentration 46.0829 µM) | -1 |
| C=C1/C(=C/C=C2\CCCC3(C)[C@@H]([C@H](C)/C=C/C=C/C(O)(CC)CC)CC[C@@H]23)C[C@@H](O)C[C@@H]1O (stereo not given in full) [Seocalcitol] (top concentration 46.0829 µM) | -1 |
| CN(CCOc1ccc(NS(C)(=O)=O)cc1)CCc1ccc(NS(C)(=O)=O)cc1 [Dofetilide] (top concentration 46.0829 µM) | 1 |
| CCC1(c2ccccc2)C(=O)NCNC1=O [Primidone] (top concentration 46.0829 µM) | -1 |

====

System: SB.msgc-1
protocol.text: AC50 for growth inhibition (viability) (log10 M); higher = less potent
condition.context: SB.msgc-1 (sporadic gastric cancer)
The reader will find reported AC50 for growth inhibition (log10 M) values listed item by item below.

| compound | AC50 for growth inhibition (log10 M) |
| --- | --- |
| CC1=C(/C=C/C(C)=C/C=C/C(C)=C/C=C/C=C(C)/C=C/C=C(C)/C=C/C2=C(C)CCCC2(C)C)C(C)(C)CCC1 [beta-Carotene] | -4.88 |
| O=C(O)Cc1cccc(OCCCN(Cc2cccc(C(F)(F)F)c2Cl)CC(c2ccccc2)c2ccccc2)c1 [GSK-3965] | -4.68 |
| ClC1=CC\2=C(NC(=O)\C(=C2N[C@@H]3CN4CCC3CC4)C5=NC6=C([NH]5)C=CC=C6)C=C1 [CHIR-124] | -6.53 |
| Cc1cc(Nc2nc(N[C@@H](C)c3ccc(F)cc3)c(C#N)cc2F)n[nH]1 [AZ-960] | -4.68 |
| CNC(=O)CN1CCC(Oc2cc3c(Nc4cccc(Cl)c4F)ncnc3cc2OC)CC1 [Sapitinib] | -7.98 |
| Cc1ccc([S+](=O)([O-])Nc2nc3ccccc3nc2Nc2ccc3nsnc3c2)cc1 [XL-147] | -6.19 |

====

Tested on: SB.mhdgc-1
protocol.text: area under the dose-response curve of % viability (trapezoidal, 11 doses) (% viability x log10 concentration); higher = less cytotoxic
condition.context: SB.mhdgc-1 (hereditary c.1380delA CDH1 gastric cancer)
Use MET when the recorded area under the dose-response curve is no lower than 500; use NOT MET when it is lower.

| molecule | measured.target | class.assignment |
| --- | --- | --- |
| CC(=O)NC(C)c1ccc(Oc2ccc(OC(C)C)cc2)cc1 (stereo not drawn) [ACC1 BMS] (top concentration 46.0829 µM) | SB.mhdgc-1 | MET |
| Cn1c(CNc2ccc(C(=N)N)cc2)nc2cc(C(=O)N(CCC(=O)O)c3ccccn3)ccc21 [Dabigatran] (top concentration 23.0415 µM) | SB.mhdgc-1 | NOT MET |
| COC(=O)C/1=C/O[C@@H](O)[C@H]\2[C@@H]1C\C=C2CO [Genipin] (top concentration 46.0829 µM) | SB.mhdgc-1 | NOT MET |
| COc1ccc(F)c(F)c1C(=O)c1cnc(NC2CCN([S+](C)(=O)[O-])CC2)nc1N [R-547] (top concentration 46.0829 µM) | SB.mhdgc-1 | NOT MET |
| O=C(C1CC1)N1CC[C@@H](Cn2c(-c3ccc(-c4ccc5occc5c4)cc3)nc3cnccc32)C1 (top concentration 46.0829 µM) | SB.mhdgc-1 | MET |
| COCCn1c2c([n+](Cc3cnccn3)c1C)C(=O)c1ccccc1C2=O [Sepantronium bromide] (top concentration 46.0829 µM) | SB.mhdgc-1 | NOT MET |
| Cc1onc(-c2ccccc2)c1C(=O)N[C@@H]1C(=O)N2[C@@H]1SC(C)(C)[C@@H]2C(=O)[O-].[Na+] [Oxacillin sodium] (top concentration 46.0829 µM) | SB.mhdgc-1 | MET |
